Target: T1, human MSLN-R3-his protein (human, UniProt Q13421 487-598)
T1 construct: it is put last here; also called human MSLN-R3 protein; hMSLN-R3-his; not shown: His tag
T1 sequence (Q13421 495-606): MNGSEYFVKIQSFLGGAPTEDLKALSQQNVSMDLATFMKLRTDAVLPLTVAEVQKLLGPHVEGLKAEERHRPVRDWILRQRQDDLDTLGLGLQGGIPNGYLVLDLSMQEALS
Experiment: ELISA on coated antigen, no antibody (blank, column 'none')
Each entry below lists one item and its recorded OD450 value.
measured.endpoint: OD450

[[record]]
binder = "S009-F7.61.21 (antibody, human IgG1, kappa, V domains shown, Human-murine chimeric antibody, human IgG1 heavy and kappa light constant regions) VH: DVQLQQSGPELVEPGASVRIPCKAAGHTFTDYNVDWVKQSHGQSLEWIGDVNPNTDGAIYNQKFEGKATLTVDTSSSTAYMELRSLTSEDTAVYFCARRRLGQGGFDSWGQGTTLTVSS VL: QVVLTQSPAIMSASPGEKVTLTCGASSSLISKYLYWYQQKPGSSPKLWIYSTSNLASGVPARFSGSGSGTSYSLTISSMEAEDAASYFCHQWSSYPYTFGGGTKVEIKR"
result_value = "0.06 OD"

[[record]]
binder = "S009-F7.6.17 (antibody, human IgG1, kappa, V domains shown, Human-murine chimeric antibody, human IgG1 heavy and kappa light constant regions) VH: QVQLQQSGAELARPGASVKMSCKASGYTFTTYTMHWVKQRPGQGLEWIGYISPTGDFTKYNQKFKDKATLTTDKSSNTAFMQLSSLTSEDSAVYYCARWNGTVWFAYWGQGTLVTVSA VL: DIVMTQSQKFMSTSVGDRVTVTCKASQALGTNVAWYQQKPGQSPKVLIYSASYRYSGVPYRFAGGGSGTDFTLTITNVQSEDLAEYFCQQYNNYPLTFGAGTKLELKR"
result_value = "0.08 OD"

[[record]]
binder = "S009-F7.25.19 (antibody, human IgG1, kappa, V domains shown, Human-murine chimeric antibody, human IgG1 heavy and kappa light constant regions) VH: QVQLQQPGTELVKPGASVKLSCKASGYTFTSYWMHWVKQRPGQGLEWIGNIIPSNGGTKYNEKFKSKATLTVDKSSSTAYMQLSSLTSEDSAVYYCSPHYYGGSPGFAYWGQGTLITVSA VL: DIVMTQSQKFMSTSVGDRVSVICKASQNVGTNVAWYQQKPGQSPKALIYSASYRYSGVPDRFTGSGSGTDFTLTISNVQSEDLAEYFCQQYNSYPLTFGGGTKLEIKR"
result_value = "0.07 OD"

[[record]]
binder = "S009-F7.11.11 (antibody, human IgG1, kappa, V domains shown, Human-murine chimeric antibody, human IgG1 heavy and kappa light constant regions) VH: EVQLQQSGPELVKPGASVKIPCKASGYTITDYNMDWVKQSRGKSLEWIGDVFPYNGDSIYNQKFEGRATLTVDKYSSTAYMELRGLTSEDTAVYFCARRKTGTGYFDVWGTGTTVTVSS VL: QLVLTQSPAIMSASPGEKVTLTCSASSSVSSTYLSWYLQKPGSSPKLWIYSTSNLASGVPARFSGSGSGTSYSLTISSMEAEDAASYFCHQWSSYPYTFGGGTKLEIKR"
result_value = "0.06 OD"

[[record]]
binder = "S009-F7.2.3 (antibody, human IgG1, kappa, V domains shown, Human-murine chimeric antibody, human IgG1 heavy and kappa light constant regions) VH: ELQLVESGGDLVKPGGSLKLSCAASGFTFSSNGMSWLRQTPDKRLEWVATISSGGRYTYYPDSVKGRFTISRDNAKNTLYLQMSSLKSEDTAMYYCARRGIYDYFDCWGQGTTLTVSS VL: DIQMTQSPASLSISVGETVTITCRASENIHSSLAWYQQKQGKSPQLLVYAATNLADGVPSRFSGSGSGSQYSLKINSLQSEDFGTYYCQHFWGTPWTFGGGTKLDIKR"
result_value = "0.07 OD"

